- SYSTEM TESTED: FGFR1 (Homo sapiens, UniProt P11362)
- Sequence (P11362 22-822, species assumed): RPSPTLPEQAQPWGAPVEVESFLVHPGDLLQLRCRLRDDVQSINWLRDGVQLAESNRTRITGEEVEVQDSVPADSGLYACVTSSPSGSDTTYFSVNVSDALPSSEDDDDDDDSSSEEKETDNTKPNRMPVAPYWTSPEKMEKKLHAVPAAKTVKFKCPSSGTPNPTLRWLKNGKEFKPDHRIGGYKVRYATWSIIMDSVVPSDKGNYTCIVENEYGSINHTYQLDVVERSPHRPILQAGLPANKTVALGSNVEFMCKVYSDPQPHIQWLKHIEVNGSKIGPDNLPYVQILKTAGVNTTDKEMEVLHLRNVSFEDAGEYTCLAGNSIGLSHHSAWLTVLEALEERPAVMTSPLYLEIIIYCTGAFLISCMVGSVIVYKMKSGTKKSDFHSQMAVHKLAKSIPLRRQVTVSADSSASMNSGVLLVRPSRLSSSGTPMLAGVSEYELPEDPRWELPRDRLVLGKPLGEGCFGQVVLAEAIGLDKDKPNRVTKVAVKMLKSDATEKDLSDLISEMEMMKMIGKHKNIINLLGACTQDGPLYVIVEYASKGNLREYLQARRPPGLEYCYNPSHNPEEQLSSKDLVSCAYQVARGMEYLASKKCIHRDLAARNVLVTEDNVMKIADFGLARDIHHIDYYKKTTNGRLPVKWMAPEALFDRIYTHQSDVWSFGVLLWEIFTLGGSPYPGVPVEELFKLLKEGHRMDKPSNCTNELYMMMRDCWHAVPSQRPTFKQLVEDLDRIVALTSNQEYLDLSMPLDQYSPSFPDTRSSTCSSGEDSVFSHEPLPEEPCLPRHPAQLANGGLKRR
- METHOD SUMMARY: FGFR1 inhibition screen
- Assay type: biochemical
- CONDITIONS USED: Table 6, introduced as Ki values; ATP at or close to Km

| SMILES INPUT | IC50 / nM |
| --- | --- |
| Cc1cc(Nc2cc(N3CC(F)(C4CC4)C3)nc(Sc3ccc(NC(=O)CC(F)(F)F)cc3)n2)[nH]n1 | 65 |

---

- SYSTEM TESTED: Tie2 (Homo sapiens, UniProt Q02763)
- Sequence (Q02763 23-1124, species assumed): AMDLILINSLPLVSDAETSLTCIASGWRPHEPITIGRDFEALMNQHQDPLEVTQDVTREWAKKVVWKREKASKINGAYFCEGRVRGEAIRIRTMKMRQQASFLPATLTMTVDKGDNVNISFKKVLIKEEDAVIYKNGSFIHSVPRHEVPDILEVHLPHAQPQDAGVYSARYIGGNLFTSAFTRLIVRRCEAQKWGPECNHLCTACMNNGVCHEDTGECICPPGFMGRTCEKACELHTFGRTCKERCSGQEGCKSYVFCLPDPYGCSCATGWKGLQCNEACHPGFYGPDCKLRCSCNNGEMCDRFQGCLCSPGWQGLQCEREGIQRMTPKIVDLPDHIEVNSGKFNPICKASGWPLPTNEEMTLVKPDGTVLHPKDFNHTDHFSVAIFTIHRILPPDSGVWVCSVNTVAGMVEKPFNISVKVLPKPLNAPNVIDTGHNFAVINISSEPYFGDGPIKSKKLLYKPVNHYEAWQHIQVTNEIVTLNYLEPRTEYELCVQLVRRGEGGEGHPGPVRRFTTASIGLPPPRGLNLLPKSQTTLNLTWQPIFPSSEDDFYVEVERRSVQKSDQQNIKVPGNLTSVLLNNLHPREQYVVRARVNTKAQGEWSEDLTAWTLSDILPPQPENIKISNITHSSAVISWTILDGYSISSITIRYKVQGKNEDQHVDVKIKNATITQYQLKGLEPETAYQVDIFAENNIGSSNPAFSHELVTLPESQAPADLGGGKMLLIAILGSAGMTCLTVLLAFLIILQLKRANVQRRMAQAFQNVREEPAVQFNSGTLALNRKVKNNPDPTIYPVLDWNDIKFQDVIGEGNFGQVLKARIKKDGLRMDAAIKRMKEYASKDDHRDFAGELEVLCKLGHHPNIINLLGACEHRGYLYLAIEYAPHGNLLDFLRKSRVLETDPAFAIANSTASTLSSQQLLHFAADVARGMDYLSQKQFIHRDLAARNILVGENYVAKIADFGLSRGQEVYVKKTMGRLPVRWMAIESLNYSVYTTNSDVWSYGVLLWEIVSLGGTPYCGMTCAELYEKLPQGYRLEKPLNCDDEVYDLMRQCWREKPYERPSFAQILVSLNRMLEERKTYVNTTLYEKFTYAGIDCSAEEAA
- METHOD SUMMARY: Tie2 inhibition screen
- Type: biochemical
- CONDITIONS USED: Table 6, introduced as Ki values; ATP at or close to Km
pIC50: −log10 of the molar value.

| SMILES INPUT | pIC50 |
| --- | --- |
| Cc1cc(Nc2cc(N3CC(F)(C4CC4)C3)nc(Sc3ccc(NC(=O)CC(F)(F)F)cc3)n2)[nH]n1 | 7.33 |

---

- SYSTEM TESTED: Aurora-2 (Aurora A) (Homo sapiens, UniProt O14965)
- Sequence (O14965 1-403): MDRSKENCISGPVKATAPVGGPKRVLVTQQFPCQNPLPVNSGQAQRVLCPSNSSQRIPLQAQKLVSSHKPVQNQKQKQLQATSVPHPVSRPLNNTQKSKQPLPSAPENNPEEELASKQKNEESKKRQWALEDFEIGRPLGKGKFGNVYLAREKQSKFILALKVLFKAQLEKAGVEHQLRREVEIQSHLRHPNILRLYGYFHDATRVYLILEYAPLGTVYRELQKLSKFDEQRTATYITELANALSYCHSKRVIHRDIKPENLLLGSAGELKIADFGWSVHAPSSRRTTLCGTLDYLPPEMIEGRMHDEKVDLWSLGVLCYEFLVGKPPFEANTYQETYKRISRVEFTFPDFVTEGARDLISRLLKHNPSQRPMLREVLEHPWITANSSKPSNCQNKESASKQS
- METHOD SUMMARY: Aurora-2 (Aurora A) inhibition assay, coupled enzyme
- Type: biochemical
- CONDITIONS USED: 400 μM ATP, 40 nM Aurora-2; read-out: Aurora A Ki
- Experimental: Assays were carried out in a mixture of 100 mM Hepes (pH7.5), 10 mM MgCl2, 1 mM DTT, 25 mM NaCl, 2.5 mM phosphoenolpyruvate, 300 μM NADH, 30 μg/ml pyruvate kinase and 10 μg/ml lactate dehydrogenase. […] An assay stock buffer solution was prepared containing all of the reagents listed above, with the exception of Aurora-2 and the test compound of interest. […] Initial reaction rates were determined with a Molecular Devices SpectraMax Plus plate reader over a 10 minute time course. […]
Consider the following compounds and their measured Ki readings.
READOUT TYPE: Ki (nM)

| COMPOUND | UNITS SYMBOL | RECORDED MEASUREMENT |
| --- | --- | --- |
| Cc1cc(Nc2cc(N3CC(O)(C4CC4)C3)nc(Sc3ccc(NC(=O)C4CC4)cc3)n2)n[nH]1 [Compound I-8] | nM | 0.87 |
| Cc1cc(Nc2cc(N3CC(F)(C4CC4)C3)nc(Sc3ccc(NC(=O)C4(C(F)(F)F)CC4)cc3)n2)[nH]n1 [Compound I-15] | nM | 0.4 |
| Cc1cc(Nc2cc(N3CC(O)(C4CC4)C3)nc(Sc3ccc(NC(=O)C4CC4)cc3F)n2)[nH]n1 [Compound I-11] | nM | 0.41 |

---

Consider the following compounds and their measured Ki readings.
- SYSTEM TESTED: JAK3 (Homo sapiens, UniProt P52333)
- Sequence (P52333 1-1124): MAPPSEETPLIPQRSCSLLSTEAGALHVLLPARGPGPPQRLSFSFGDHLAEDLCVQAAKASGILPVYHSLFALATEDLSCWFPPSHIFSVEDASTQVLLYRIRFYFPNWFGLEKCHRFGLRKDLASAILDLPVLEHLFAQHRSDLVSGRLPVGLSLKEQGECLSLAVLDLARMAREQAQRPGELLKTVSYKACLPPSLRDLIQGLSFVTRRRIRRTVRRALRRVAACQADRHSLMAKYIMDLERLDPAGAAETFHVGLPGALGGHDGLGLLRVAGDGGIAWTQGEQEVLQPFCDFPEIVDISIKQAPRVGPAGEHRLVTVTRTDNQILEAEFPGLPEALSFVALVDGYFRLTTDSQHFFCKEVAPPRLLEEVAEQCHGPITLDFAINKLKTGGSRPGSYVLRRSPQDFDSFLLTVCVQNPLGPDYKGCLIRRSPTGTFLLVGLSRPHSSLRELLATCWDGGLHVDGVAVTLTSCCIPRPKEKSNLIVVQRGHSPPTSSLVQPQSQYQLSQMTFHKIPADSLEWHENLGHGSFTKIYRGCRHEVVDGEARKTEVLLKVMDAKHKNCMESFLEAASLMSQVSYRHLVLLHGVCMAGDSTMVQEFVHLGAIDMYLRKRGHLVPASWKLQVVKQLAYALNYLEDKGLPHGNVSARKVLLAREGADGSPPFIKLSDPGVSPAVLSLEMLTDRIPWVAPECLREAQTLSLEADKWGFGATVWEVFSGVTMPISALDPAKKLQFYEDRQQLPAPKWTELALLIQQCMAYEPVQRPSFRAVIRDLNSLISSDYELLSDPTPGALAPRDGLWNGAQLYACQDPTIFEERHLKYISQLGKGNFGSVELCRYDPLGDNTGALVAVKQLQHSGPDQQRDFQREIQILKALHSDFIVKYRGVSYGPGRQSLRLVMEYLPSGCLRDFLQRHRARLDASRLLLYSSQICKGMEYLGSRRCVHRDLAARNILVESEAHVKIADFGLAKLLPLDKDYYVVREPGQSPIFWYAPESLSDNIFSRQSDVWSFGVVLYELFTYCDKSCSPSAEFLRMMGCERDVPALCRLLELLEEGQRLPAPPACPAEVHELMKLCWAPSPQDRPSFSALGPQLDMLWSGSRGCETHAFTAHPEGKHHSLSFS

| SMILES INPUT | Ki |
| --- | --- |
| CCC(=O)Nc1ccc(Sc2nc(Nc3cc(C)n[nH]3)cc(N3CC(O)(C4CC4)C3)n2)cc1 | 160 nM |
| Cc1cc(Nc2cc(N3CC(F)(C4CC4)C3)nc(Sc3ccc(NC(=O)CC4CC4)cc3)n2)[nH]n1 | 620 nM |
| O=C(Nc1ccc(Sc2nc(Nc3cc(C4CC4)[nH]n3)cc(N3CC(O)(C4CC4)C3)n2)cc1)C1CC1 | 51 nM |
| Cc1cc(Nc2cc(N3CC(F)(C4CC4)C3)nc(Sc3ccc(NC(=O)CC(F)(F)F)cc3)n2)[nH]n1 | 77 nM |
| Cc1cc(Nc2cc(N3CC(F)(C4CC4)C3)nc(Sc3ccc(NC(=O)C4CC4)cc3F)n2)n[nH]1 | 220 nM |
